# key: entry, value: Emax
molecular target: long isoform of human D2 receptor (Homo sapiens, UniProt P14416); experiment: cAMP HTRF Agonist Assay (DRD2L PathHunter CHO-K1 cells, forskolin-stimulated); settings: CHO-K1, read-out: cAMP (agonist mode) Emax
Sequence (P14416 whole entry, canonical isoform): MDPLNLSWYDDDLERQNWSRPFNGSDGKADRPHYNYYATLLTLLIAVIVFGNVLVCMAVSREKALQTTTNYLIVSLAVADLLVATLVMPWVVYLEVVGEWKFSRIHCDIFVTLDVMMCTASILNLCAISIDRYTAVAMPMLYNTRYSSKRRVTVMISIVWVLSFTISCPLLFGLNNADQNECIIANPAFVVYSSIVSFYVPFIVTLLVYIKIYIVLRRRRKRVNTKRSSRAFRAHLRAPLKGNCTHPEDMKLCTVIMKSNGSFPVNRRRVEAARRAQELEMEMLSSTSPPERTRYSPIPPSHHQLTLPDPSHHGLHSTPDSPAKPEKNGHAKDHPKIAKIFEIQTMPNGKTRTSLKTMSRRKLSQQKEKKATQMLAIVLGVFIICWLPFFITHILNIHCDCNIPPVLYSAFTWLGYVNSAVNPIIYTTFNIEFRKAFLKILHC

Qu. Any idea what its Emax is? The compound is `COc1ccc(-n2cc3c(n2)CCN(CCCCOc2ccc4c(c2)NC(=O)CC4)C3)cc1`
Ans. < 10%

Qu. Look up Emax for this compound: `O=C1CCc2ccc(OCCCCN3CCc4sccc4C3)cc2N1`
Ans. 10 to 25%

Qu. Would you mind telling me what Emax value was observed for `O=C1NCCc2ccc(OCCCCN3CCc4nn(-c5ccccc5)cc4C3)nc2N1` ?
Ans. 25 to 50%

Qu. Recorded Emax of `CCOc1ccccc1N1CCN(CCCCOc2cccc(-c3cc[nH]n3)n2)CC1` , please.
Ans. 50 to 75%

***
Qu. So what does the record say about Emax for `CCOc1cccnc1N1CCN(CCCCOc2ccc3cccc(O)c3n2)CC1` ?
Ans. 25 to 50%

Qu. Name the reported Emax value associated with the compound `O=C1CCc2ccc(OCCCCN3CCc4c(cnn4-c4cccc(Cl)c4)C3)cc2N1`
Ans. < 10%

Qu. I have this compound here, `COc1ccc2c(c1)CCN(CCCCOc1ccc3ccc(=O)[nH]c3n1)C2` , and I need its recorded Emax.
Ans. 25 to 50%

Qu. Quick one: Emax for `c1ccc(N2CCN(CCCCOc3ccc4cn[nH]c4n3)CC2)nc1` ?
Ans. > 75%

Qu. So what does the record say about Emax for `Cn1cc2c(n1)CCN(CCCCOc1ccc3c(c1)NC(=O)CC3)C2` ?
Ans. > 75%

----------
molecular target: long isoform of human D2 receptor (Homo sapiens, UniProt P14416); assay: Arrestin Antagonist Assay (DRD2L PathHunter CHO-K1 cells, vs EC80 dopamine); conditions: CHO-K1, read-out: β-arrestin (antagonist mode) Imax
# Lookup of reported Emax keyed by entry

// worked examples, Emax included
Qu. Could you tell me which Emax is on file for Oc1cccc2ccc(OCCCCN3CCc4cc(C(F)(F)F)ccc4C3)nc12 [Compound 17] ?
Ans. > 75%

Qu. Quick one: Emax of O=c1ccc2ccc(OCCCCN3CCc4nn(-c5ccccc5)cc4C3)nc2[nH]1 [Compound 66] ?
Ans. > 75%

Qu. Would you kindly share the measured Emax for Cc1cccc(N2CCN(CCCCOc3ccc4cn[nH]c4n3)CC2)c1C [Compound 3] ?
Ans. > 75%

Continuing:
Qu. For COc1ccc2c(c1)CCN(CCCCOc1ccc3cccc(O)c3n1)C2 [Compound 13] , what is its reported Emax?
Ans. > 75%

Qu. For the molecule shown here, Cc1cccc(N2CCN(CCCCOc3ccc4cn[nH]c4c3)CC2)c1C [Compound 95] , give the reported Emax.
Ans. > 75%

Qu. Look up Emax for this molecule: CCn1cc2c(n1)CCN(CCCCOc1ccc3c(c1)NC(=O)CC3)C2 [Compound 34]
Ans. < 10%

Qu. Which Emax value belongs to CCC(=O)Nc1cccc(OCCCCN2CCc3ccccc3C2)n1 [Compound 41] ?
Ans. > 75%

Qu. Any idea what its Emax is? The molecule is O=C1CCc2ccc(OCCCCN3CCc4ccsc4C3)cc2N1 [Compound 28]
Ans. > 75%

----------
target: long isoform of human D2 receptor (Homo sapiens, UniProt P14416); experiment: cAMP HTRF Agonist Assay (DRD2L PathHunter CHO-K1 cells, forskolin-stimulated); details: CHO-K1, read-out: cAMP (agonist mode) Emax
endpointLabel: Emax

Some solved cases for reference:
Qu. Query (compound): O=c1ccc2ccc(OCCCCN3CCc4cc(F)ccc4C3)nc2[nH]1 [Compound 56] ; field requested: Emax
Ans. < 10%

Qu. I am curious: what Emax value has been reported for O=c1ccc2ccc(OCCCCN3CCc4nn(-c5ccccc5)cc4C3)nc2[nH]1 [Compound 66] ?
Ans. 10 to 25%

Qu. Recorded Emax of O=C1CCc2ccc(OCCCCN3CCc4cccc(C(F)(F)F)c4C3)nc2N1 [Compound 79] , please.
Ans. < 10%

Qu. Using the record for O=c1ccc2ccc(OCCCCN3CCc4cccc(C(F)(F)F)c4C3)nc2[nH]1 [Compound 63] , report its Emax.
Ans. < 10%

Shift focus to the following entry.
Qu. Value lookup for Emax; key = N#Cc1ccc2c(c1)CCN(CCCCOc1ccc3ccc(=O)[nH]c3n1)C2 [Compound 57]
Ans. < 10%

----------
biological target: long isoform of human D2 receptor (Homo sapiens); assay: Arrestin Agonist Assay (DRD2L PathHunter CHO-K1 cells, β-arrestin recruitment); details: CHO-K1, read-out: β-arrestin (agonist mode) Emax
endpointLabel: Emax

See these solved cases before continuing.
Qu. Request the reported Emax associated with `O=C1NCCc2ccc(OCCCCN3CCc4c(Cl)cccc4C3)nc2N1`
Ans. 25 to 50%

Qu. Tell me the measured Emax of `Cc1cccc(N2CCN(CCCCOc3ccc4cn[nH]c4n3)CC2)c1C` , please.
Ans. < 10%

Qu. Need Emax of `O=C1CCc2ccc(OCCCCN3CCc4ncsc4C3)cc2N1` , thanks.
Ans. 10 to 25%

Qu. Which measured Emax value corresponds to `Clc1ccccc1N1CCN(CCCCOc2cccc(-c3cc[nH]n3)n2)CC1` ?
Ans. 25 to 50%

Qu. Fill in: Emax of `Oc1cccc2ccc(OCCCCN3CCN(c4cccc5ccccc45)CC3)nc12` is ___
Ans. 25 to 50%

Qu. For the compound `Clc1cccc(N2CCN(CCCCOc3ccc4cn[nH]c4n3)CC2)c1Cl` , what Emax is on record?
Ans. < 10%

Further cases:
Qu. Emax lookup needed for `N#Cc1cccc2c1CN(CCCCOc1ccc3ccc(=O)[nH]c3n1)CC2` , thanks.
Ans. 10 to 25%

Qu. Which Emax value is on record for `O=C1CCc2ccc(OCCCCN3CCc4cccc(C(F)(F)F)c4C3)nc2N1` ?
Ans. < 10%

Qu. What measured Emax goes with `Clc1ccccc1N1CCN(CCCCOc2ccc3cn[nH]c3c2)CC1` ?
Ans. 10 to 25%

----------
biological target: long isoform of human D2 receptor (Homo sapiens, UniProt P14416); assay: Arrestin Antagonist Assay (DRD2L PathHunter CHO-K1 cells, vs EC80 dopamine)
Listed next: entries and their corresponding IC50.

# count of solved cases: 5
Qu. Item `N#Cc1cccc2c1CCN(CCCCOc1ccc3c(n1)NC(=O)CC3)C2` with long isoform of human D2 receptor (Homo sapiens, UniProt P14416) - IC50?
Ans. > 10000 nM

Qu. Provide the documented IC50 with long isoform of human D2 receptor (Homo sapiens, UniProt P14416) as the system for `COc1ccc2c(c1)CCN(CCCCOc1ccc3ccc(=O)[nH]c3n1)C2`
Ans. < 10 nM

Qu. # get_value(readout= IC50, system= long isoform of human D2 receptor (Homo sapiens, UniProt P14416)) for `Oc1cccc2ccc(OCCCCN3CCc4cc(F)ccc4C3)nc12`
Ans. 100 to 1000 nM

Qu. Query for long isoform of human D2 receptor (Homo sapiens, UniProt P14416): what IC50 does the record show for `CCOc1cccnc1N1CCN(CCCCOc2ccc3cccc(O)c3n2)CC1` ?
Ans. 10 to 100 nM

Qu. Entry `CCOc1ccccc1N1CCN(CCCCOc2cccc(-c3cc[nH]n3)n2)CC1` , system long isoform of human D2 receptor (Homo sapiens, UniProt P14416): what IC50 was measured?
Ans. < 10 nM

New cases:
Qu. What is its IC50 for long isoform of human D2 receptor (Homo sapiens, UniProt P14416)? Entry: `c1ccc(N2CCN(CCCCOc3ccc4cn[nH]c4n3)CC2)nc1`
Ans. > 10000 nM

Qu. Any idea what IC50 came out for `O=C1CCc2ccc(OCCCCN3CCc4nn(-c5ccccn5)cc4C3)cc2N1` on long isoform of human D2 receptor (Homo sapiens, UniProt P14416)?
Ans. 10 to 100 nM

Qu. Item: `O=C1CCc2ccc(OCCCCN3CCc4cc(F)ccc4C3)nc2N1` Test system: long isoform of human D2 receptor (Homo sapiens, UniProt P14416) Read-out: IC50 Value: ?
Ans. 10 to 100 nM

Qu. Quick check: IC50 on long isoform of human D2 receptor (Homo sapiens, UniProt P14416), item `Clc1cccc(N2CCN(CCCCOc3ccc4cn[nH]c4c3)CC2)c1` ?
Ans. 100 to 1000 nM

----------
biological target: long isoform of human D2 receptor (Homo sapiens); experiment: Arrestin Agonist Assay (DRD2L PathHunter CHO-K1 cells, β-arrestin recruitment); conditions: CHO-K1, read-out: β-arrestin (agonist mode) Emax
endpointLabel: Emax

Below are worked cases with known answers.
Qu. # Emax lookup, item `Oc1cccc2ccc(OCCCCN3CCc4cccc(C(F)(F)F)c4C3)nc12`
Ans. < 10%

Qu. Need Emax, item `O=C1NCCc2ccc(OCCCCN3CCc4nn(-c5ccccn5)cc4C3)nc2N1`
Ans. > 75%

Qu. Given the entry `O=C1CCc2ccc(OCCCCN3CCc4c(cnn4-c4cccc(Cl)c4)C3)cc2N1` , report its measured Emax.
Ans. < 10%

Qu. // query Emax value for entry `O=C1CCc2ccc(OCCCCN3CCc4nn(-c5ccc(F)cc5)cc4C3)cc2N1`
Ans. < 10%

Qu. I'd like to know its Emax. The molecule in question is `O=C1CCc2ccc(OCCCCN3CCc4sccc4C3)nc2N1`
Ans. < 10%

New cases:
Qu. Returns the measured Emax for the input molecule. Input: `O=C1NCCc2ccc(OCCCCN3CCc4ccccc4C3)nc2N1`
Ans. < 10%

Qu. Which measured Emax value corresponds to `Oc1cccc2ccc(OCCCCN3CCc4c(Cl)cccc4C3)nc12` ?
Ans. > 75%
